Target: human M1 receptor (Homo sapiens)
Sequence (P11229 whole entry): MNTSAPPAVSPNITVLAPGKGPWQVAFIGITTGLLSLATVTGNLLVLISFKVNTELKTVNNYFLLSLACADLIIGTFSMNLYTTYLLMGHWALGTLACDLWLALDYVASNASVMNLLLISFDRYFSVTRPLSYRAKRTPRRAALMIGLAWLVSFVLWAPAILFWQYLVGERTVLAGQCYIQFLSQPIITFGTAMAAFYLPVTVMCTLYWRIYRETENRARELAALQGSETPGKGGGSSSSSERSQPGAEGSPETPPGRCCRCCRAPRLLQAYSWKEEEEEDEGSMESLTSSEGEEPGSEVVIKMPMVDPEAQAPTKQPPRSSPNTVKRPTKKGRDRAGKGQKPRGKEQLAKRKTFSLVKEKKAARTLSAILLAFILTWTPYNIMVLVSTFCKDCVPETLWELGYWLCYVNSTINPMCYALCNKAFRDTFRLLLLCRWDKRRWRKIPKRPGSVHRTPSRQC
Test: In vitro functional assay of muscarinic acetylcholine receptor activity (aequorin calcium flux, antagonist mode vs EC80 acetylcholine), M1
Conditions: CHO-K1 cells stably expressing human M1 receptor with Aequorin; decrease in EC80 acetylcholine response
# maps each entry to its IC50

compound: O=C1[C@@H](CCCc2cccc3ncnn23)C[C@H]2CN(c3ccc(Cl)cn3)CCN12
IC50: < 100 nM
//
compound: O=C1[C@@H](CCCc2cccc3ncsc23)C[C@@H]2CN(c3ccncc3F)CCN12
IC50: 1000 to 10000 nM
//
compound: COc1cc(N2CCN3C(=O)[C@@H](CCCc4cccc5ncnn45)C[C@H]3C2)ccn1
IC50: < 100 nM
//
compound: Cn1ncc2cccc(CCC[C@H]3C[C@H]4CN(c5ccc(C#N)cn5)CCN4C3=O)c21
IC50: 100 to 1000 nM
//
compound: Cc1ccc(N2CCN3C(=O)[C@@H](CCCc4cccc5ncnn45)C[C@H]3C2)nc1
IC50: < 100 nM
//
compound: N#Cc1ccc(N2CCN3C(=O)[C@@H](CCCc4cccc5cncn45)C[C@H]3C2)nc1
IC50: 100 to 1000 nM
//
compound: N#Cc1ccc(N2CCN3C(=O)[C@@H](CCCc4cccc5nncn45)C[C@H]3C2)nc1
IC50: 100 to 1000 nM
//
compound: N#Cc1ccc(N2CCN3C(=O)[C@@H](CCCc4ccc5c(c4)CCO5)C[C@H]3C2)nc1
IC50: 100 to 1000 nM
//
compound: O=C1[C@@H](CCCc2cccn3ncnc23)C[C@H]2CN(c3ccc(F)cn3)CCN12
IC50: < 100 nM
//
compound: O=C1[C@@H](CCCc2cccc3ncsc23)C[C@H]2CN(c3ccncc3)CCN12
IC50: < 100 nM
//
compound: O=C1[C@@H](CCCc2cccc3ncsc23)C[C@H]2CN(c3ccnc(Cl)c3)CCN12
IC50: 100 to 1000 nM
//
compound: COCc1ccc(N2CCN3C(=O)[C@@H](CCCc4cccc5ncnn45)C[C@H]3C2)nc1
IC50: < 100 nM
//
compound: O=C1[C@@H](CCCc2cccn3ncnc23)C[C@H]2CN(c3ncc(F)cn3)CCN12
IC50: < 100 nM
//
compound: O=C1C(CCCc2cccc3ncnn23)C[C@H]2CN(c3ccc(F)cn3)CCN12 (mixture of isomers) [Example 41]
IC50: < 100 nM
//
compound: N#Cc1ccc(N2CCN3C(=O)[C@@H](CCCc4cccnn4)C[C@H]3C2)nc1
IC50: < 100 nM
//
compound: O=C1[C@@H](CCCc2cccc3ncsc23)C[C@H]2CN(c3ccncc3F)CCN12
IC50: < 100 nM
